tested on: UACC-62 melanoma; test: NCI tumour cell line growth inhibition, 48 h
metric: TGI

molecule: Cc1[nH]c(=O)n2c(C)nnc2c1C(=O)O
TGI: > 100 µM

Give one value of TGI per listed molecule.
1. Cc1cc(S(=O)(=O)Nc2nc3ccccc3c(=O)n2Cc2ccco2)c(S)cc1Cl
2. Cn1cc(-c2csc(-c3ccccc3)n2)c2cccnc21
3. CC(=O)NC1C(OCc2ccccc2)OC(CO)C(O)C1OCC(=O)NC(C(=O)NC(CCC(=O)NCCCCCC(=O)Nc1ccc2c(c1)CN1C(=O)c3ccccc3C1=N2)C(N)=O)C(C)C (stereo unspecified)
4. CC[O-].CC[O-].O=C1C=C([O-])C(=O)c2ccccc21.O=C1C=C([O-])C(=O)c2ccccc21.[Ti+4]

(A)
> 100 µM
25.5 µM
40.9 µM
> 100 µM

###

tested on: HL-60(TB) leukemia; assay: NCI tumour cell line growth inhibition, 48 h
Kindly state TGI for each of the entries shown.
Numbers only, in µM.

Give one value of TGI per listed molecule.
1. CC(=O)[O-].CC(=O)[O-].O=C([CH-]C(=O)c1ccccc1)c1ccccc1.[Nd+3].[OH3+]
2. Nc1c(C(=O)Nc2cccc(Cl)c2)sc2nc3c(cc12)C(O)CCC3 (stereo not given)
3. Cc1cc(O)ccc1C1(c2ccc(O)cc2C)OC(=O)c2ccccc21

(A)
31.8
0.821
64.2

Give one value of TGI per listed molecule.
1. O=S(=O)(NCCNc1nccc(-c2c(-c3ccc(F)cc3)nc3sccn23)n1)c1ccc(O)cc1
2. CCOC(=O)C(C(=O)OCC)=C1C=C(c2ccccc2)c2ccccc21
3. COc1ccc(/C(C)=C2\CCCN(Cc3ccccc3)C2)cc1

(A)
1: 30.5; 2: 92; 3: 47.5

Give one value of TGI per listed molecule.
1. COc1cccc2nc(Nc3cccc(NC(=O)c4ccc(N5CCN(C)CC5)c(C(F)(F)F)c4)c3)ccc12
2. [O-]c1c2c(nn1-c1ccc(F)cc1)c1ccccc1c[n+]2Cc1ccccc1
3. O=S(=O)(O)c1c(Cl)c(Cl)c(O)c2ncccc12

(A)
1: 2.35; 2: 11.1; 3: 4.75

###

system: IGROV1 ovarian; assay: NCI tumour cell line growth inhibition, 48 h
metric: TGI (µM)
One number for each entry, in µM.

See these solved cases before continuing.
compound: CC(C)C[C@H](NC(=O)[C@@H](Cc1ccccc1)n1ccc(Nc2ccccc2)cc1=O)B(O)O
unit_abbreviation: µM
experimental_value: 27.9
--
compound: C=C(C)COc1ccc2c(c1)CCC1C2CCC2(C)C(=O)/C(=N/O)CC12 (stereo not drawn)
unit_abbreviation: µM
experimental_value: 4.6
--
compound: Cc1ccc(C2=NN(c3ccc(S(=O)(=O)NC(=O)NCc4ccccc4)cc3)C(c3ccc(N(C)C)cc3)C2)c(C)c1 (stereo not drawn)
unit_abbreviation: µM
experimental_value: 13.6
--
compound: CC1(C=O)CC(CCc2ccccc2)NC1Cc1ccc(O)cc1 (stereo not drawn)
unit_abbreviation: µM
experimental_value: 30.8
--
compound: CCOC(=O)C#Cc1cccc(C#CC(=O)OCC)c1
unit_abbreviation: µM
experimental_value: 32.5

Give one value of TGI per listed compound.
1. CCN1CCN(Cc2ccc(Nc3ncc(F)c(-c4cc(F)c5nc(C)n(C(C)C)c5c4)n3)nc2)CC1
2. Cc1nn(CNc2ccc(F)c(Cl)c2)c(=S)n1/N=C/c1ccc(-c2ccc(Cl)cc2Cl)o1
3. CCCCCCCCCCCCCCCC(=O)NS(=O)(=O)OC[C@H]1O[C@@H](n2cnc3c(N)ncnc32)[C@H](O)[C@@H]1O

(A)
13.1
34.6
0.199

Give one value of TGI per listed compound.
1. COc1cccc(CCn2c(N)c(-c3cc(Cl)cc(Cl)c3)c3ccc([N+](=O)[O-])cc3c2=O)c1
2. COc1ccc2nc3cc([N+](=O)[O-])ccc3c(NCCO)c2c1
3. O=C1CC(n2ccnc2)c2c(Cl)sc(Cl)c21 (stereo not drawn)
4. CC(=O)OC1C(O)C(C)OC(OC2C(OC(=O)C3CCC4C(C3)OC3(CC(OC(=O)/C=C/c5ccccc5)C(C)CO3)C43CO3)OC(C)C(O)C2OC(C)=O)C1O (stereo not drawn)
5. CC(C)(C)N1CC1CNC(=O)C(=O)NCC1CN1C(C)(C)C (stereo not drawn)
6. COc1ccc2c(c1)OCC1c3cc(OC)c4ccccc4c3OC21 (stereo not drawn)
7. COC(=O)C1c2cc3c(c(O)c2CCC1(C)O)C(=O)c1c(O)cc2c(c1C3=O)OC1OC2(C)C(O)C(N(C)C)C1O (stereo not drawn)
8. CN(C)CCC(=O)[C@@]1(O)CC[C@H]2[C@@H]3CC=C4C[C@@H](O)CC[C@]4(C)[C@H]3CC[C@@]21C

(A)
22.7
13.6
26.6
0.0922
19.7
21.6
2.35
34.3

Give one value of TGI per listed compound.
1. CC/C(Cl)=N\OC(=O)Nc1ccc(F)c(Cl)c1
2. COc1ccc(/C(C)=C2\CCCN(Cc3ccccc3)C2)cc1

(A)
1: 34.7; 2: 94.3

###

tested on: NCI-H522 lung; assay: NCI tumour cell line growth inhibition, 48 h
Kindly state GI50 for each of the entries shown.

compound: C=C(C)[C@@H]1CC[C@]2(C(=O)O)CC[C@]3(C)[C@H](CC[C@@H]4[C@@]5(C)C/C(=C/c6ccco6)C(=O)C(C)(C)[C@@H]5CC[C@]43C)[C@@H]12
experimental_value: 2810 nM

Give one value of GI50 per listed compound.
1. CC(C)c1cnc(-c2cc(Cl)ccc2F)cc1Nc1ccncc1C(=O)NC(CO)CO
2. C[C@@]12CC[C@@H](O)C[C@@H]1CC[C@H]1[C@H]2CC[C@@]2(C)[C@H](c3ccc(=O)oc3)CC[C@@]12O
3. CCN1C(=O)/C(=c2\sc3n(c2=O)C2C(NN=3)N(CC)C(=O)N2CC)c2ccccc21 (centres undefined)

(A)
1: 13000 nM; 2: < 10 nM; 3: 384 nM

###

Kindly state TGI for each of the entries shown.
test system: T-47D breast; experiment: NCI tumour cell line growth inhibition, 48 h

See these solved cases before continuing.
compound: COc1ccc(N=Nc2ccc(O)c(=O)cc2)cc1
metric: TGI
experimental_value: > 100 µM
--
compound: OC1C2CCCCN2C[C@@H](O)[C@H]1O (some centres undefined)
metric: TGI
experimental_value: > 100 µM
--
compound: C/C=C\C1OC1(C)c1cc(=O)c2c(C)cc3c(c2o1)C(=O)c1c(O)c(C2CC(C)(N(C)C)C(OC(C)=O)C(C)O2)cc(C2CC(N(C)C)C(O)C(C)O2)c1C3=O (centres undefined)
metric: TGI
experimental_value: 0.0324 µM
--
compound: CC(C)CCNC(=O)c1ccc(CNC(=O)/C=C/c2ccc3ccccc3c2)cc1
metric: TGI
experimental_value: > 100 µM
--
compound: Cc1ccc(C2=NN(c3ccc(S(=O)(=O)NC(=O)NCc4ccccc4)cc3)C(c3ccc(N(C)C)cc3)C2)c(C)c1 (centres undefined)
metric: TGI
experimental_value: > 100 µM

Give one value of TGI per listed compound.
1. Cn1c2ncccc2n2c(=O)cc(O)cc12
2. Cc1nc(C)c(N2CCN(Cc3ccccc3)CC2)c(=O)[nH]1

(A)
1. 95.7 µM
2. > 100 µM

Give one value of TGI per listed compound.
1. C[n+]1cccc(NC(=O)c2ccc3ccc4ccc(C(=O)Nc5ccc[n+](C)c5)nc4c3n2)c1
2. NC(=O)C1=C(O)[C@@]2(O)C(=O)C3=C(O)c4c(O)cccc4CC3C[C@H]2CC1=O (some centres undefined)

(A)
> 100 µM
23.8 µM

###

Kindly state TGI for each of the entries shown.
tested on: LOX IMVI melanoma; assay: NCI tumour cell line growth inhibition, 48 h

See these solved cases before continuing.
compound: Nc1c(F)c(F)c2c(c1F)N(CCCCCl)c1ccccc1S2
TGI: > 100 µM
--
compound: CCC1(c2ccc(OC)c(OC)c2)CCN(S(=O)(=O)c2ccc(C)cc2)C1 (stereo unspecified)
TGI: > 100 µM
--
compound: c1cc2c(cc1C1OCC3C(c4ccc5c(c4)OCO5)OCC13)OCO2 (stereo unspecified)
TGI: > 100 µM
--
compound: O=C1CSC(c2ccccc2)N1c1ccc(-c2ccc(-n3c(-c4ccccc4)nc4ccccc4c3=O)cc2)cc1 (stereo unspecified)
TGI: > 100 µM
--
compound: CCOC(=O)/C(C1=NCCN1C)=C(\O)c1ccccc1
TGI: > 100 µM
--
compound: CN(C)c1n2c3ccc([N+](=O)[O-])cc3n3c(N(C)C)[n+]4ccccc4c3c2c2cccc[n+]12
TGI: > 100 µM
--
compound: OC1C2CCCCN2C[C@@H](O)[C@H]1O (stereo partly specified)
TGI: > 100 µM
--
compound: COC1(OC)CCN(Cc2ccccc2)C1=O
TGI: 16.6 µM
--
compound: Cc1ccc(C2=NN(c3ccc(S(=O)(=O)NC(=O)NCc4ccccc4)cc3)C(c3ccc(N(C)C)cc3)C2)c(C)c1 (stereo unspecified)
TGI: 14.1 µM
--
compound: CCOC(=O)c1ccc(N=C2Sc3nc4ccccc4n3C2=Nc2ccc(C(=O)OCC)cc2)cc1
TGI: 81.8 µM

Give one value of TGI per listed compound.
1. NC(=O)c1c[nH]c2ncnc(N)c12
2. c1ccc(-c2cc3nc4ccccc4nc3cc(-c3ccccc3)[nH][nH]2)cc1
3. CCc1ccc(Oc2c(-c3ccc(OCCc4cccc(C(F)(F)F)c4)cc3O)n[nH]c2C(F)(F)F)cc1
4. O=C(/C=C(/C=C/c1cccc2[nH]ccc12)OB(F)F)/C=C/c1cccc2[nH]ccc12
5. CC[O-].CC[O-].O=C1C=C([O-])C(=O)c2ccccc21.O=C1C=C([O-])C(=O)c2ccccc21.[Ti+4]

(A)
> 100 µM
> 100 µM
6.89 µM
1.02 µM
> 100 µM

Give one value of TGI per listed compound.
1. OC1CC(O)O[C@H](c2ccccc2)C1 (stereo partly specified)
2. COc1ccc(OC)c(C2=C(c3cn(C)c4ccccc34)C(=O)NC2=O)c1
3. CSC12c3cc(C)n(-c4ccc(I)cc4)c3CC(C)(C)CN1C(=O)C2Oc1ccccc1 (stereo unspecified)
4. O=C1c2ccccc2C(=O)c2c1oc1cc(O)c(Cl)cc21
5. COC(=O)c1cc(/C=C/C(=O)Cc2ccccc2)cn1S(=O)(=O)c1ccccc1
6. COc1ccc2nc3c4c(nccc4c2c1)-c1ncccc1C3=O

(A)
1: > 100 µM; 2: > 25 µM; 3: > 100 µM; 4: 7.88 µM; 5: > 100 µM; 6: 0.0977 µM
